Kd reference
# measured.on: FN-EIIIB
# Sequence (chain, as listed by the source): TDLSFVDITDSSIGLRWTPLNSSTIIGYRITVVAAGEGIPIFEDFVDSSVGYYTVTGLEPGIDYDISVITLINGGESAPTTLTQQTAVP
# test.summary: BLI
// note: answer is a bare numeric in nM

Answered cases to consult:
binder	Kd / nM
LMJ2.5H (VHH, sortase-tagged with biotin in the Western blots ; Western blots used the nanobody sortase-tagged with biotin at a terminus. The BLI material was his-tag purified. Tag letters are not stated for the stand-alone nanobody and are left out.) VHH: QVQLVETGGGLVQAGGSLRLSCAVSGSTFSHSAGGWYRQAPEKQRELVAGIRSDGNINYADSVKDRFTISRDNASNTMYLQMNNLKPEDTAVYVCNIRGSYGNTYYSRWGQGTQVTVSS	0.227
NJB2 (parental nanobody) (VHH, Purified by a his-tag. Its letters and position are not stated for the free nanobody, so it is left out.) VHH: QVQLVETGGGLVQAGGSLRLSCAASGSTFSHNAGGWYRQAPEKQRELVAGISSDGNINYADSVKDRFTISRDNASNTMYLQMNNLKPEDTAVYVCNIRGSYGNTYYSRWGQGTQVTVSS	1.82
LMJ2.5G (VHH, sortase-tagged with biotin in the Western blots ; Western blots used the nanobody sortase-tagged with biotin at a terminus. The BLI material was his-tag purified. Tag letters are not stated for the stand-alone nanobody and are left out.) VHH: QVQLVETEGGLVQAGGSLRLSCAASGSTFSHSAGGWYRQAPEKQRELVAGIRSDGNINYADSVKDRFTISRDNASNTMYLQMNNLKPEDTAVYVCNIRGSYGNTYYSRWGQGTQVTVSS	0.166

Then this binder:
Which Kd value belongs to LMJ2.5J (VHH, sortase-tagged with biotin in the Western blots ; Western blots used the nanobody sortase-tagged with biotin at a terminus. The BLI material was his-tag purified. Tag letters are not stated for the stand-alone nanobody and are left out.) VHH: QVQLVETRGGLVQAGGSLRLSCAVSGSTFSHSAGGWYRQAPEKQRELVAGIGSAGNINYADSVKDRFTISRDNASNTMYLQMNNLKPEDTAVYVCNIRGSYGNTYYSRWGQGTQVTVSS ? 0.0622
